# TEST_METHOD_NOTES: Plasma protein binding, rat
# Assay type: in vitro ADME
EXPERIMENTAL_ENDPOINT: fraction unbound
Form: value (number only, do not type unit).

The compound listed as "CNc1ncnc2c1c(-c1ccc3cc(OC4CC4)ccc3c1)nn2CC(C)(C)O" shows fraction unbound equal to 0.04
